test system: Bacillus subtilis; assay: Inhibitory activity was determined against bacillus subtilis (ATCC 82); assay type: functional
OBSERVED PROPERTY: MIC (µg/mL)

I. CC(C)C[C@@H]1NC(=O)[C@H](CCCN)NC(=O)[C@H](C(C)C)NC(=O)[C@H](Cc2ccc(O)cc2)NC(=O)[C@H](CO)NC(=O)[C@H](CC(N)=O)NC(=O)[C@@H](Cc2ccccc2)NC(=O)[C@H](Cc2ccccc2)NC(=O)[C@@H]2CCCN2C(=O)[C@@H](Cc2ccccc2)NC1=O
II. CC(C)C[C@@H]1NC(=O)[C@H](CCCN)NC(=O)[C@H](C(C)C)NC(=O)[C@H](Cc2ccc(O)cc2)NC(=O)[C@H](CCC(N)=O)NC(=O)[C@H](CC(N)=O)NC(=O)[C@@H](C)NC(=O)[C@H](Cc2ccccc2)NC(=O)[C@@H]2CCCN2C(=O)[C@@H](Cc2ccccc2)NC1=O
Q) Select one. Lower MIC: I or II Output the label that corresponds to your choice.
A) I

* * *

Overview of reported MIC across a group of compounds:
tested on: Bacillus subtilis; assay: Inhibitory activity was determined against bacillus subtilis (ATCC 82); assay type: functional
Give the value in µg/mL but do not write µg/mL after it.

SMILES CODE: CC(C)C[C@@H]1NC(=O)[C@H](CCCN)NC(=O)[C@H](C)NC(=O)[C@H](Cc2ccc(O)cc2)NC(=O)[C@H](CCC(N)=O)NC(=O)[C@H](CC(N)=O)NC(=O)[C@@H](Cc2ccccc2)NC(=O)[C@H](Cc2ccccc2)NC(=O)[C@@H]2CCCN2C(=O)[C@@H](Cc2ccccc2)NC1=O
MIC / µg/mL: 15

Shift focus to the following entry.
Q) Form field: reported MIC of CC(C)C[C@@H]1NC(=O)[C@H](CC(N)=O)NC(=O)[C@@H](Cc2ccccc2)NC(=O)[C@H](Cc2ccccc2)NC(=O)[C@@H]2CCCN2C(=O)[C@@H](Cc2ccccc2)NC(=O)[C@H](CC(C)C)NC(=O)[C@H](CCCN)NC(=O)[C@H](C(C)C)NC(=O)[C@H](Cc2ccc(O)cc2)NC1=O
A) 0.3

* * *

system: Bacillus subtilis; assay: Inhibitory activity was determined against bacillus subtilis (ATCC 82); assay type: functional
Overview of reported MIC across a group of compounds:
Give the value in mg/L but do not write mg/L after it.

SMILES CODE: CC(C)C[C@@H]1NC(=O)[C@H](CCCN)NC(=O)[C@H](C(C)C)NC(=O)[C@H](Cc2ccc(O)cc2)NC(=O)[C@H](CCC(=O)O)NC(=O)[C@H](CC(N)=O)NC(=O)[C@@H](Cc2ccccc2)NC(=O)[C@H](Cc2ccccc2)NC(=O)[C@@H]2CCCN2C(=O)[C@@H](Cc2ccccc2)NC1=O
OBSERVED PROPERTY: MIC
REPORTED RESULT: 7.5
//
SMILES CODE: CC[C@H](C)[C@@H]1NC(=O)[C@H](CC(N)=O)NC(=O)[C@@H](Cc2ccccc2)NC(=O)[C@H](Cc2ccccc2)NC(=O)[C@@H]2CCCN2C(=O)[C@@H](Cc2ccccc2)NC(=O)[C@H](CC(C)C)NC(=O)[C@H](CCCN)NC(=O)[C@H](C(C)C)NC(=O)[C@H](Cc2ccc(O)cc2)NC1=O
OBSERVED PROPERTY: MIC
REPORTED RESULT: 1.8
//
SMILES CODE: CC(C)C[C@@H]1NC(=O)[C@H](C)NC(=O)[C@H](C(C)C)NC(=O)[C@H](Cc2ccc(O)cc2)NC(=O)[C@H](CCC(N)=O)NC(=O)[C@H](CC(N)=O)NC(=O)[C@@H](Cc2ccccc2)NC(=O)[C@H](Cc2ccccc2)NC(=O)[C@@H]2CCCN2C(=O)[C@@H](Cc2ccccc2)NC1=O
OBSERVED PROPERTY: MIC
REPORTED RESULT: 13

Shift focus to the following entry.
Q) Form field: reported MIC of CC(C)C[C@@H]1NC(=O)[C@H](CCCN)NC(=O)[C@H](C(C)C)NC(=O)[C@H](Cc2ccc(O)cc2)NC(=O)[C@H](CCC(N)=O)NC(=O)[C@H](C)NC(=O)[C@@H](Cc2ccccc2)NC(=O)[C@H](Cc2ccccc2)NC(=O)[C@@H]2CCCN2C(=O)[C@@H](Cc2ccccc2)NC1=O
A) 15

* * *

system: Bacillus subtilis; experiment: Inhibitory activity was determined against bacillus subtilis (ATCC 82); assay type: functional
Non-standard residues stand in square brackets, D forms with d. Residues, ends and D or L forms follow the SMILES beside them. Orn = NCCC[C@H](N)C(=O)O
OBSERVED PROPERTY: MIC (µg/mL)

COMPOUND: CC(C)C[C@@H]1NC(=O)[C@H](CCCN)NC(=O)[C@H](C(C)C)NC(=O)[C@H](Cc2ccc(O)cc2)NC(=O)[C@H](CCCCN)NC(=O)[C@H](CC(N)=O)NC(=O)[C@@H](Cc2ccccc2)NC(=O)[C@H](Cc2ccccc2)NC(=O)[C@@H]2CCCN2C(=O)[C@@H](Cc2ccccc2)NC1=O (cyclo(F[dF]NKYV[Orn]L[dF]P))
MIC (µg/mL): 1.1

1. CC(C)C[C@@H]1NC(=O)[C@H](CCCN)NC(=O)[C@H](C(C)C)NC(=O)[C@H](C)NC(=O)[C@H](CCC(N)=O)NC(=O)[C@H](CC(N)=O)NC(=O)[C@@H](Cc2ccccc2)NC(=O)[C@H](Cc2ccccc2)NC(=O)[C@@H]2CCCN2C(=O)[C@@H](Cc2ccccc2)NC1=O
2. CC(C)C[C@@H]1NC(=O)[C@H](CCCN)NC(=O)[C@H](C(C)C)NC(=O)[C@H](Cc2ccc(O)cc2)NC(=O)[C@H](C)NC(=O)[C@H](CC(N)=O)NC(=O)[C@@H](Cc2ccccc2)NC(=O)[C@H](Cc2ccccc2)NC(=O)[C@@H]2CCCN2C(=O)[C@@H](Cc2ccccc2)NC1=O
Q) Two entries are listed, 1 and 2 . Which one carries the higher MIC? Output the label that corresponds to your choice.
A) 1
(1: 14 µg/mL, 2: 1.5 µg/mL)

* * *

Overview of reported MIC across a group of molecules:
tested on: Bacillus subtilis; experiment: Inhibitory activity was determined against bacillus subtilis (ATCC 82); format: functional
Non-standard residues stand in square brackets, D forms with d. Residues, ends and D or L forms follow the SMILES beside them. Orn = NCCC[C@H](N)C(=O)O
Give the value in µg/mL but do not write µg/mL after it.

// known answers, use as guide
MOLECULE: CC(C)C[C@@H]1NC(=O)[C@H](CCCN)NC(=O)[C@H](C(C)C)NC(=O)[C@H](Cc2ccc(O)cc2)NC(=O)[C@H](CCC(N)=O)NC(=O)[C@H](CC(N)=O)NC(=O)[C@@H](Cc2ccccc2)NC(=O)[C@H](Cc2ccccc2)NC(=O)[C@H](C)NC(=O)[C@@H](Cc2ccccc2)NC1=O
UNIT NAME: µg/mL
MIC: 18
--
MOLECULE: CC(C)C[C@@H]1NC(=O)[C@H](CCCN)NC(=O)[C@H](C(C)C)NC(=O)[C@H](Cc2ccc(O)cc2)NC(=O)[C@H](CCCN)NC(=O)[C@H](CC(N)=O)NC(=O)[C@@H](Cc2ccccc2)NC(=O)[C@H](Cc2ccccc2)NC(=O)[C@@H]2CCCN2C(=O)[C@@H](Cc2ccccc2)NC1=O (cyclo(F[dF]N[Orn]YV[Orn]L[dF]P))
UNIT NAME: µg/mL
MIC: 0.2

Q) Query for Bacillus subtilis: what MIC does the record show for CC(C)C[C@@H]1NC(=O)[C@H](CCCN)NC(=O)[C@H](C(C)C)NC(=O)[C@H](Cc2ccc(O)cc2)NC(=O)[C@H](CCC(N)=O)NC(=O)[C@H](CC(N)=O)NC(=O)[C@@H](Cc2ccccc2)NC(=O)[C@H](C)NC(=O)[C@@H]2CCCN2C(=O)[C@@H](Cc2ccccc2)NC1=O ?
A) 19

* * *

tested on: Bacillus subtilis; experiment: Inhibitory activity was determined against bacillus subtilis (ATCC 82); assay type: functional
OBSERVED PROPERTY: MIC (µg/mL)

MOLECULE: CC(C)C[C@@H]1NC(=O)[C@H](CCCN)NC(=O)[C@H](C(C)C)NC(=O)[C@H](Cc2ccc(O)cc2)NC(=O)[C@H](CC(=O)O)NC(=O)[C@H](CC(N)=O)NC(=O)[C@@H](Cc2ccccc2)NC(=O)[C@H](Cc2ccccc2)NC(=O)[C@@H]2CCCN2C(=O)[C@@H](Cc2ccccc2)NC1=O
UNIT NAME: µg/mL
MIC: 5.3

1. CC(C)[C@@H]1NC(=O)[C@H](Cc2ccc(O)cc2)NC(=O)[C@H](CCC(N)=O)NC(=O)[C@H](CC(N)=O)NC(=O)[C@@H](Cc2ccccc2)NC(=O)[C@H](Cc2ccccc2)NC(=O)[C@@H]2CCCN2C(=O)[C@@H](Cc2ccccc2)NC(=O)[C@H](C)NC(=O)[C@H](CCCN)NC1=O
2. CC(C)C[C@@H]1NC(=O)[C@H](CCCN)NC(=O)[C@H](C(C)C)NC(=O)[C@H](Cc2ccc(O)cc2)NC(=O)[C@H](CCC(N)=O)NC(=O)[C@H](CC(N)=O)NC(=O)[C@@H](Cc2ccccc2)NC(=O)[C@H](Cc2ccccc2)NC(=O)[C@@H]2CCCN2C(=O)[C@@H](C)NC1=O
Q) Select one. Lower MIC: 1 or 2 Output the label that corresponds to your choice.
A) 2
